experiment: in vitro; settings: PAMPA
quantity-name: Prediction (predictive penetration in the CNS)

compound_structure_string=Br.COc1ccc(-c2nc(=NCCO)sn2-c2ccccc2)cc1 observed_value=CNS+
compound_structure_string=Br.Br.Cc1nc(=NCc2cccnc2)sn1-c1ccccc1 observed_value=CNS+
